- Tested on: LXFL 529
- test-method-notes: NCI tumour cell line growth inhibition, 48 h
Active and inactive are the calls of the source. Rule as the data show it: active = GI50 up to about 1.1 µM and inactive = higher.
readout-name: GI50

1) Nc1ncnc2c1ncn2C1C=C(CO)C(O)C1O (stereo not given): 16.7 µM (inactive)
2) Cc1c2c(c(C)c3c1[nH]c1ccccc13)CN(C)CC2: 14.9 µM (inactive)
3) OC1c2ccccc2C2(O)C1C(c1ccccc1)C(c1ccccc1)C2(O)c1ccccc1 (stereo not given): 9.82 µM (inactive)
4) Cc1ccc(NC(=O)CCc2nnc3s/c(=C\C=C\c4ccccc4)c(=O)n23)cc1: 60.7 µM (inactive)

# assay system LXFL 529: give GI50 of CC(C)(C)c1cc(C(OCCl)(C(F)(F)F)C(F)(F)F)c2c(c1)C(C(F)(F)F)(C(F)(F)F)OC21c2ccccc2C(=O)c2ccccc21
> 100 µM (inactive)

# assay system LXFL 529: give GI50 of c1ccc(CNc2ccc3[nH]c4cnccc4c3c2)cc1
16.6 µM (inactive)

# assay system LXFL 529: give GI50 of CCOC(=O)N1CCN(C=S)CC1
> 100 µM (inactive)

# assay system LXFL 529: give GI50 of Cc1nc(-c2nc(C)c(C(=O)/C=C/c3ccc([N+](=O)[O-])cc3)s2)sc1C(=O)/C=C/c1ccc([N+](=O)[O-])cc1
> 100 µM (inactive)

# assay system LXFL 529: give GI50 of COC(=O)C(CC(=O)c1cc2c(cc1I)OCO2)Cc1cc(OC)c(OC)c(OC)c1I (stereo not given)
12.2 µM (inactive)

# assay system LXFL 529: give GI50 of Cc1ccc(C2=NN(C)COC2C(F)(F)F)cc1 (stereo not given)
> 100 µM (inactive)

====

- Test system: COLO 205
- test-method-notes: NCI tumour cell line growth inhibition, 48 h
Activity calls are given as the source filed them. Cut-off read from the data, not from the text of the source: active = GI50 up to about 1.1 µM and inactive = higher.
readout-name: GI50

Recorded results for 5 molecules are shown here.
1) COC(=O)c1ccccc1CC1Cc2cccc(C)c2C1=O (stereo not given): 20.3 µM (inactive)
2) CNC(=O)c1nnn(Cc2ccccc2)c1S: > 100 µM (inactive)
3) O=Nn1c2ccccc2c2ccccc21: 14.1 µM (inactive)
4) COc1cc(/C=C2\C(=O)N(c3cccc([N+](=O)[O-])c3)C(c3ccccc3)S2(=O)=O)cc(OC)c1OC (stereo not given): > 100 µM (inactive)
5) C=CC(C)(C)/C=C/c1ccc(O)cc1: 35.5 µM (inactive)

Respond only with GI50 recorded for CCOC(=O)c1c(-c2ccc(OC)cc2)c(C#N)c(=S)n(C2OC(CO)C(O)C(O)C2O)c1-c1ccccc1 (stereo not given)
49.3 µM (inactive)

Respond only with GI50 recorded for C=CCN(C(=O)OC(C)(C)C)[C@H](C)C(=O)N[C@@H](C)C(=O)OC
> 100 µM (inactive)

Respond only with GI50 recorded for COC(=O)[C@]1(c2ccc(N(C)C)cc2OC)C[C@@H]2CCCN(CCc3c1[nH]c1ccccc31)C2
13.8 µM (inactive)

Respond only with GI50 recorded for C/C(=C1/N=C(c2cc([N+](=O)[O-])ccc2Cl)N(c2cccc(C)c2)C1=O)c1cc2ccccc2oc1=O
45.3 µM (inactive)

Respond only with GI50 recorded for CN(C)/C=C/c1nnnn1-c1ccc(I)cc1
> 100 µM (inactive)

====

- Tested on: CAKI-1
- test-method-notes: NCI tumour cell line growth inhibition, 48 h
The source made the active and inactive calls. No stated cut-off is given here; in the data, active = GI50 up to about 1.1 µM and inactive = higher.
readout-name: GI50

Recorded results for 5 compounds are shown here.
1) COc1cc2c(c(OC)c1)/C(=C/Sc1ccccc1)C(=O)N(C(C)(C)C)C2: 32.7 µM (inactive)
2) CC12Oc3ccc4ccccc4c3C1c1c(ccc3ccccc13)O2 (configuration not stated): > 100 µM (inactive)
3) CC(C)/C(Cl)=N/OC(=O)Nc1ccc(OC(F)(F)F)cc1: 5.2 µM (inactive)
4) Cc1nc(-c2nc(C)c(C(=O)/C=C/c3ccc([N+](=O)[O-])cc3)s2)sc1C(=O)/C=C/c1ccc([N+](=O)[O-])cc1: > 100 µM (inactive)
5) Clc1ncnc2c1ncn2CCCCCCCCCCCCn1cnc2c(Cl)ncnc21: 3.4 µM (inactive)

Respond only with GI50 recorded for COc1ccc(C[C@@H]2OC3(C=CC(=O)CC3Sc3ccccc3)O[C@H]2Cc2ccc(OC)cc2)cc1 (some centres not stated)
2.05 µM (inactive)

Respond only with GI50 recorded for CC(C)(C)C(=O)C(C(c1ccccc1)N1CCOCC1)N1CCOCC1 (configuration not stated)
> 100 µM (inactive)

Respond only with GI50 recorded for c1ccc(CNc2ccc3[nH]c4cnccc4c3c2)cc1
16.2 µM (inactive)

Respond only with GI50 recorded for COC(=O)/C=C\C(C#N)(C#N)/N=C/c1ccc(Br)s1
2.45 µM (inactive)

Respond only with GI50 recorded for O=C(NCCc1ccccc1)[C@H]1CCCC[C@@H]1CCO
> 100 µM (inactive)

Respond only with GI50 recorded for O=C1OC(c2ccco2)=N/C1=C\c1ccc(Cl)c(Cl)c1
91 µM (inactive)

Respond only with GI50 recorded for Nc1nc(Cl)c(/C=N\O)c(NCC2(CO)CC(=O)C2)n1
75.3 µM (inactive)

Respond only with GI50 recorded for CCOC1NC(/N=C/c2ccc(OC)cc2)=C(C#N)C1C#N (configuration not stated)
> 100 µM (inactive)

Respond only with GI50 recorded for COC(=O)/C=C/c1ccc2c(c1)CCC2
17.4 µM (inactive)

Respond only with GI50 recorded for COc1ccc(CC2(Cc3ccc(OC)cc3)CCOC2=O)cc1
67 µM (inactive)

Respond only with GI50 recorded for CC1CCC2C(C)C(=O)OC2C2(C)C(=O)C=CC12 (configuration not stated)
> 10 µM (inactive)

Respond only with GI50 recorded for COc1ccc2ccccc2c1C1NC(=O)c2ccccc2N1 (configuration not stated)
2.62 µM (inactive)

Respond only with GI50 recorded for CCOC(=O)/C(=C/c1ccco1)P(=O)(OCC)OCC
> 100 µM (inactive)

Respond only with GI50 recorded for C/C(=N\O)C1CC2C=C(C#N)C1N(Cc1ccccc1)C2 (configuration not stated)
> 100 µM (inactive)

Respond only with GI50 recorded for CC(=O)/C(=C\NC(=S)Nc1ccc(S(N)(=O)=O)cc1)C(=O)Nc1ccccc1C
37.8 µM (inactive)

Respond only with GI50 recorded for CC1=C(C(=O)NCc2ccccc2)C(c2ccc(N(C)C)cc2)C(C(=O)NCc2ccccc2)=C(C)N1
> 100 µM (inactive)

Respond only with GI50 recorded for CCO/C(CCn1[nH]c(=O)c(Cl)c(Cl)c1=O)=N\NC(=O)C(=O)NN
> 100 µM (inactive)
